- ASSAY NAME: Pharmacokinetics assay in rats after intragastric administration
- Type: in vivo
- MEASUREMENT PARAMETERS: both sexes, Sprague-Dawley, rat, plasma, po, SD rats, 5 mg/Kg, read-out: Mean Residence Time MRT
Record form. Attribute: MRT. Fill in for each entry.
Number in h, nothing else.

Notebook: CC1=NN(c2ccc(C)c(C)c2)C(=O)/C1=N\Nc1cccc(-c2cccc(C(=O)O)c2)c1O [Eltrombopag, eltrombopag, reference compound] , MRT read as 4.63

Form: molecule = CC1=NN(c2ccc3c(c2)CCCC3)C(=O)/C1=N\Nc1cccc(-c2ccc(C(=O)O)o2)c1O [Example 15] ; MRT = 4.09

// MRT lookup, molecule = CC1=NN(c2ccc3c(c2)CCC3)C(=O)/C1=N\Nc1cc(C)cc(-c2cccc(C(=O)O)c2)c1O [Example 29] , result: 4.29

// CC1=NN(c2ccc3c(c2)CCC3)C(=O)/C1=N\Nc1cccc(-c2cccc(C(=O)O)c2)c1O [Example 1] : MRT value = 4.96
